Here, each record is paired with measured growth data.
System: TK-10 renal
experiment_summary: NCI-60 one-dose screen, 48 h (100 = growth as untreated, 0 = no growth, -100 = all killed)
condition_parameters: 10 µM unless noted
Compounds without any hit were thinned out: in the full panel of roughly 83,000, 20% have a hit.
observation_type: growth (%)

# molecule, result_value
records = [
    ("COc1cc(-c2nc3ccc(-c4nnc(SCC(=O)Nc5ccc(C(C)=O)cc5)o4)cc3[nH]2)cc(OC)c1OC", 121),
    ("COC(=O)C(Cc1ccccc1)NS(=O)(=O)/N=C1\\NC(=O)NC1=C(Cl)Cl (stereo unspecified)", 118),
    ("COc1cc(N=Cc2sc(Nc3nccs3)nc2O)cc(OC)c1OC", 224),
    ("CCCCCCNC(=O)Oc1ccc(/C(=C(/C)c2ccccc2)c2ccc(OCCN3CCCCCC3)cc2)cc1", 104),
    ("COc1cccc(-c2nn(-c3ccccc3)cc2-c2ccnc(N3CCN(C(=O)Nc4ccc(F)cc4)CC3)c2)c1", 92.9),
    ("O=C1c2c(c3c4cc(Br)ccc4[nH]c3c3ccc4ccccc4c23)C(=O)N1CCO", 160),
    ("CNC(=O)c1cc(-c2ccc(NC(=O)Nc3ccc(N4CCN(C)CC4)c(C(F)(F)F)c3)cc2)nc2cccnc12", -89.1),
    ("O=[N+]([O-])c1ccc(O)c2ncccc12", 55.6),
    ("CCCC(=O)NC(c1ccc(N(CC)CC)cc1)c1cc(C)c2cccnc2c1O (stereo unspecified)", 31.6),
    ("N#Cc1c(-c2ccc(Cl)cc2)nc(SCc2ccc([N+](=O)[O-])cc2)nc1N1CCNCC1", 77.4),
    ("CC(C)(C)Nc1nc2c(OCCc3ccccc3)cccn2c1-c1ccc(Cl)cc1", 20.8),
    ("CC(O)C(NC(=O)C1CCCN1C(=O)CNC(=O)C1CC(=O)NCC(=O)NC(Cc2c[nH]c3ccccc23)C(=O)NC(Cc2ccc(O)cc2)C(=O)NCC(=O)NC(CO)C(=O)NC(CCC(N)=O)C(=O)NC(Cc2c[nH]c3ccccc23)C(=O)N1)C(=O)NCC(=O)NC(CCC(N)=O)C(=O)NC(CCCNC(=N)N)C(=O)NC(CC(=O)O)C(=O)O (stereo unspecified)", 116),
    ("CCCSc1nc(Nc2ccc(/C(C)=N\\NC(N)=S)cc2)c(C#N)c(-c2ccc(OC)cc2)n1", 33.4),
    ("Cc1cc2nc3c4cc(Cl)ccc4n(CC(=O)NCCN(C)C)c3nc2cc1C", 161),
    ("COc1cc(/C=C/C(=O)c2cc(OC)c(OC)c(OC)c2)ccc1Oc1nc(NCCO)nc(N2CCOCC2)n1", 20.9),
    ("N=C1CC(=O)NN1C(=O)CSc1nc2sc3c(c2c(=O)n1-c1ccc(Cl)cc1)CCCC3", 150),
    ("CC1=C(C)C(=O)C(Nc2ccccc2)=C(Cl)C1=O", 128),
    ("N[C@@H](Cc1cn(-c2ccnc3ccccc23)nn1)C(=O)O", 101),
    ("COc1cc(/C=C/C(=O)c2ccc(Cl)cc2)ccc1Oc1nc(NCCO)nc(N2CCOCC2)n1", 110),
    ("Cc1cc(C(NC(=O)CCCCCNc2cccc3c2C(=O)N(C2CCC(=O)NC2=O)C3=O)c2cccnc2)c(O)c2ncccc12 (stereo unspecified)", 19.2),
    ("Cc1[nH]nc2ncc(C#Cc3cncc(C(=O)Nc4ccc(CN5CCN(C)CC5)c(C(F)(F)F)c4)c3)cc12", 27.8),
    ("C/C(=N\\NC(N)=O)c1c(O)sc(=O)[nH]c1=O", 110),
    ("CCN1C(=S)N(c2ccccc2)C2NC(=O)N(/N=C/C=C/c3ccccc3OC)C21 (stereo unspecified)", 105),
    ("COC(=O)c1ccc(NC(=S)N2CCc3ccc([N+](=O)[O-])cc3C2)cc1O", 137),
    ("O=C(CSc1nc2sc3c(c2c(=O)n1-c1ccc(Cl)cc1)CCCC3)N/N=C/c1ccc(F)cc1", 125),
    ("Nc1c(C(=O)Nc2ccc(C(F)(F)F)cc2)sc2nc(-c3cnccn3)cc(-c3cccs3)c12", 174),
    ("CC(=NNc1ncnc2ccccc12)c1ccc(S(C)(=O)=O)cc1", 152),
    ("COc1ccc(/C=N/NC(=O)c2[nH]c3ccc(Br)cc3c2-c2ccccc2)s1", 122),
    ("O=C(Nc1nc2ccc(O)cc2s1)c1cccc(C(F)(F)F)c1", 80.8),
    ("COC(=O)C1CCCN(S(=O)(=O)/N=C2\\NC(=O)NC2=C(Cl)Cl)C1 (stereo unspecified)", 74.6),
    ("Nc1cc(-c2c[nH]c3ccc(F)cc23)nc2cc(-c3c[nH]c4ccc(F)cc34)nn12", 118),
    ("Cn1ccnc1C(=O)/C=C/c1ccc(NC(=O)Nc2ccc(Cl)cc2)cc1", 131),
    ("N#Cc1c(-c2ccc(Cl)cc2)nc(SCc2ccccc2)nc1N1CCNCC1", 96),
    ("CC(=O)c1ccc(Nc2nc(SC(C)C)nc(-c3ccccc3)c2C#N)cc1", 101),
    ("Cc1c(NC(=O)CSc2nc3sc4c(c3c(=O)n2-c2ccc(Cl)cc2)CCCC4)c(=O)n(-c2ccccc2)n1C", 109),
    ("O=C(CSc1nc2sc3c(c2c(=O)n1-c1ccc(Cl)cc1)CCCC3)NNC(=O)Nc1cccc(C(F)(F)F)c1", 48.3),
]

----------
Test system: UACC-257 melanoma
experiment_summary: NCI-60 one-dose screen, 48 h (100 = growth as untreated, 0 = no growth, -100 = all killed)
condition_parameters: 10 µM unless noted
About 83,000 compounds went through this panel and 20% of them were active in at least one assay; those are over-represented in the sample as a whole.
So basically: growth at 80% or higher? That is Fulfilled. Lower than 80%? That is Not fulfilled.

# compound, system_name, qualitative_label
data = [
    ("COc1ccc(CNS(=O)(=O)/N=C2\\NC(=O)NC2=C(Cl)Cl)cc1", "UACC-257 melanoma", "Not fulfilled"),
    ("COc1ccc(NC2=CC(=O)C(C)=C(C)C2=O)cc1", "UACC-257 melanoma", "Not fulfilled"),
    ("CCOC(=O)c1c(NC(=O)c2cccc(C(F)(F)F)c2)sc2cc(O)ccc12", "UACC-257 melanoma", "Fulfilled"),
    ("CCOc1ccc2nc(NC(=O)c3ccc(C(F)(F)F)cc3)sc2c1", "UACC-257 melanoma", "Fulfilled"),
    ("Nc1cc(-c2c[nH]c3ccc(Cl)cc23)nc2cc(-c3c[nH]c4ccc(Cl)cc34)nn12", "UACC-257 melanoma", "Fulfilled"),
    ("CS(=O)(=O)c1ccc(-n2cc(/C=C/C(=O)c3ccc(NC(=O)CO[N+](=O)[O-])cc3)c(-c3ccc(Cl)cc3)n2)cc1", "UACC-257 melanoma", "Fulfilled"),
    ("COc1cc2nc(-c3ccc(C(F)(F)F)cc3)cc(OCCCNCC3CCCO3)c2cc1OC (centres undefined)", "UACC-257 melanoma", "Not fulfilled"),
    ("O=C1NC(=C(Cl)Cl)/C(=N/S(=O)(=O)N2CCCCC2CC2(C(F)(F)F)N=N2)N1 (centres undefined)", "UACC-257 melanoma", "Fulfilled"),
]

----------
System: 786-0 renal
experiment_summary: NCI-60 one-dose screen, 48 h
condition_parameters: 10 µM unless noted
The panel holds about 83,000 compounds, 20% with a hit somewhere; the sample as a whole holds those more often. Activity calls are given as the source filed them. How the source made its calls: active means growth percent below 10; inactive means the rest.
Outcomes: true (1) (active), false (0) (inactive)

# compound, system_name, qualitative_label
rows = [
    ("COc1ccccc1/C=C/C=N/NC1=NC2C(S1)N(C)C(=O)N2C (stereo not given)", "786-0 renal", "false (0)"),
    ("COc1cc(/C=C/C(=O)c2ccc(C(F)(F)F)cc2)ccc1Oc1nc(NCCO)nc(N2CCOCC2)n1", "786-0 renal", "false (0)"),
    ("CC1=C(C)C(=O)C(Nc2cccc(C(F)(F)F)c2)=C(Cl)C1=O", "786-0 renal", "false (0)"),
    ("Clc1ccc2oc3c(NCCCn4ccnc4)c4ccccc4nc3c2c1", "786-0 renal", "true (1)"),
    ("Fc1ccc(-c2nc(C(Cl)Cl)nc3cc(-c4ccccc4)nn23)cc1", "786-0 renal", "false (0)"),
    ("O=C(CSc1nc2sc3c(c2c(=O)n1-c1ccc(Cl)cc1)CCCC3)N/N=C/c1ccc(F)cc1", "786-0 renal", "false (0)"),
    ("COc1ccc(-c2nn3c(-c4ccccc4F)nnc3s2)cc1", "786-0 renal", "false (0)"),
    ("Cc1nc(-c2cc3ccccc3oc2=O)ccc1C(=O)/C=C/c1ccccn1", "786-0 renal", "true (1)"),
    ("O=C(N/N=C/c1cccs1)c1[nH]c2ccc(Br)cc2c1-c1ccccc1", "786-0 renal", "false (0)"),
    ("CC(=O)Oc1ccccc1C(=O)Nc1ccc(C(=O)/C=C/c2ccncc2)cc1", "786-0 renal", "false (0)"),
    ("CCN1C(=S)N(CC)C2C1NN=C1SC(c3ccccc3)=CC(=O)N12 (stereo not given)", "786-0 renal", "false (0)"),
    ("COc1ccc(CNS(=O)(=O)/N=C2\\NC(=O)NC2=C(Cl)Cl)cc1", "786-0 renal", "false (0)"),
    ("COc1cc(/C=C/C(=O)c2ccc(F)cc2)ccc1Oc1nc(NCCO)nc(N2CCOCC2)n1", "786-0 renal", "false (0)"),
    ("Cc1c(Nc2nnc(SCC(=O)Nc3sc4c(c3C#N)CCCC4)s2)c(=O)n(-c2ccccc2)n1C", "786-0 renal", "false (0)"),
    ("COc1cc(/C=C/C(=O)c2cc(OC)c(OC)c(OC)c2)ccc1Oc1nc(NCCO)nc(N2CCOCC2)n1", "786-0 renal", "true (1)"),
    ("C#Cc1nc(C2=C(C)C(OC(=O)CCC(=O)O)CC2)cs1 (stereo not given)", "786-0 renal", "true (1)"),
    ("Cc1ccc2ccc3ccc(C)nc3c2n1.Cc1ccc2ccc3ccc(C)nc3c2n1.Oc1c(Cl)cc(Cl)c2ccc(CN3CCCCC3)nc12.[Ru]", "786-0 renal", "true (1)"),
    ("Cn1c(SCC(=O)Nc2ccc(-c3nc4ccc([N+](=O)[O-])cc4[nH]3)cc2)nc2ccccc2c1=O", "786-0 renal", "false (0)"),
    ("CC(C)(C)Nc1nc2c(OCCc3ccccc3)cccn2c1-c1ccc(O)cc1", "786-0 renal", "false (0)"),
    ("C=CCSc1ccc2c(c1)C(N1CCNCC1)=Nc1ccccc1O2", "786-0 renal", "false (0)"),
]
